The measured values listed here are drawn from patent US7186831B2.

experiment: log P by HPLC; assay type: physicochemical; settings: HPLC, gradient method, acetonitrile/0.1% aqueous phosphoric acid; EEC directive 79/831 Annex V. A8
RECORDED_METRIC: logP
Form rule: numeric answer, no unit written next to it.

>  <MOLECULE>
Fc1ccc(-c2c(Cl)nc3nc(C4CC4)nn3c2NC2CC(C(F)(F)F)CC(C(F)(F)F)C2)c(F)c1 (centres unmarked)

>  <logP>
4.31

$$$$
>  <MOLECULE>
Cc1nc2nc(Cl)c(-c3c(F)cccc3F)c(N(C)CCN(C)C)n2n1

>  <logP>
1.28

$$$$

Prompt line: If you can, please state the reported logP value of Cc1nc2nc(Cl)c(-c3ccccc3Cl)c(N3CCCC3C)n2n1 (centres unmarked) .
Response line: 3.27

Prompt line: If you can, please state the reported logP value of `CC(C)CN(N)c1c(-c2c(F)cccc2Cl)c(Cl)nc2nc(C3CC3)nn12` .
Response line: 3.74

Prompt line: If you can, please state the reported logP value of `CON(C)c1c(-c2c(F)cccc2F)c(Cl)nc2nc(C)nn12` .
Response line: 2.54

Prompt line: If you can, please state the reported logP value of `CCCCNc1c(-c2ccc(F)cc2F)c(Cl)nc2nc(C3CC3)nn12` .
Response line: 3.6

Prompt line: If you can, please state the reported logP value of `Fc1ccc(-c2c(Cl)nc3nc(C4CC4)nn3c2N2CCCCO2)c(F)c1` .
Response line: 3.56

Prompt line: If you can, please state the reported logP value of `CCCCN(CC)c1c(-c2ccc(F)cc2F)c(Cl)nc2nc(C3CC3)nn12` .
Response line: 4.52

Prompt line: If you can, please state the reported logP value of `Cc1nc2nc(Cl)c(-c3c(F)cccc3Cl)c(N3CCCC3)n2n1` .
Response line: 2.95

Prompt line: If you can, please state the reported logP value of `CCc1nc2nc(Cl)c(-c3c(F)cc(F)cc3F)c(NC3CC3)n2n1` .
Response line: 2.85

====

test: log P by HPLC; assay type: physicochemical; details: HPLC, gradient method, acetonitrile/0.1% aqueous phosphoric acid; EEC directive 79/831 Annex V. A8
RECORDED_METRIC: logP
Form rule: numeric answer, no unit written next to it.

Worked examples follow.
>  <MOLECULE>
Fc1cccc(Cl)c1-c1c(Cl)nc2nc(C3CC3)nn2c1N1CCCCC1

>  <RECORDED_METRIC>
logP

>  <RECORDED_RESULT>
4.19

$$$$
>  <MOLECULE>
CC(C)C(C)Nc1c(-c2ccccc2Cl)c(Cl)nc2nc(C3CC3)nn12 (stereo not shown)

>  <RECORDED_METRIC>
logP

>  <RECORDED_RESULT>
4.14

$$$$
>  <MOLECULE>
Cc1nc2nc(Cl)c(-c3c(F)cc(F)cc3F)c(N(C)CCN(C)C)n2n1

>  <RECORDED_METRIC>
logP

>  <RECORDED_RESULT>
1.5

$$$$

Prompt line: If you can, please state the reported logP value of `CCN(CCOC)c1c(-c2ccc(F)cc2F)c(Cl)nc2nc(C(F)(F)F)nn12` .
Response line: 4.03

====

assay: log P by HPLC; type: physicochemical; settings: EEC directive 79/831 Annex V. A8 by HPLC (gradient method, acetonitrile/0.1% aqueous phosphoric acid)
Strictly below 3 in logP: criterion met. Otherwise: criterion not met.

Here are 7 compounds together with their reported answers.
>  <COMPOUND>
CCCN(CC1CC1)c1c(-c2ccc(F)cc2F)c(Cl)nc2nc(C)nn12

>  <CLASSIFICATION>
criterion not met

$$$$
>  <COMPOUND>
CC(=O)C1CCN(c2c(-c3ccc(F)cc3F)c(Cl)nc3nc(C)nn23)CC1

>  <CLASSIFICATION>
criterion met

$$$$
>  <COMPOUND>
Cc1nc2nc(Cl)c(-c3c(F)cccc3Cl)c(N3CCCC(C)C3)n2n1 (centres unmarked)

>  <CLASSIFICATION>
criterion not met

$$$$
>  <COMPOUND>
CC(=O)NC1CCN(c2c(-c3ccc(F)cc3F)c(Cl)nc3nc(C)nn23)CC1

>  <CLASSIFICATION>
criterion met

$$$$
>  <COMPOUND>
Cc1cccc(Nc2c(-c3c(F)cccc3F)c(Cl)nc3nc(C)nn23)c1

>  <CLASSIFICATION>
criterion met

$$$$
>  <COMPOUND>
C[C@H](Nc1c(-c2ccc(F)cc2F)c(Cl)nc2nc(C3CC3)nn12)C(F)(F)F (single isomer, unassigned) [compound 490]

>  <CLASSIFICATION>
criterion not met

$$$$
>  <COMPOUND>
CCC1=CCN(c2c(-c3c(F)cccc3F)c(Cl)nc3nc(C)nn23)CC1

>  <CLASSIFICATION>
criterion not met

$$$$

Next item in the queue.
Prompt line: Field: below-cutoff. Rule: recorded logP strictly less than 3. Subject: `CCOC(=O)CN(CC)c1c(-c2c(F)cccc2Cl)c(Cl)nc2nc(C)nn12`
Response line: criterion not met
